This listing pairs compounds with measured pest or weed control at 140 g/ha.
# System: Key Broadleaf Weed and Crop Species
# procedureSummary: Post-emergent Test II herbicidal activity (Table 5)
# Type: in vivo
# measurementSetup: post-emergence, 336 h; ABUTH: velvetleaf (Abutilon theophrasti); application rate 140 g ai/ha; 14 days after application; read-out: Visual Growth Reduction (%) 14 Days After Application, ABUTH
# Excerpt: Post-emergent Test II: Seeds or nutlets of the desired test plant species were planted in Sun Gro Metro-Mix® 360 planting mixture, which typically has a pH of 6.0 to 6.8 and an organic matter content of about 30 percent, in plastic pots with a surface area of 64 square centimeters. When required to ensure good germination and healthy plants, a fungicide treatment and/or other chemical or physical treatment was applied. […]
experimentalEndpoint: pest or weed control at 140 g/ha

C#Cc1ccc(-c2nc(C(=O)O)c(Cl)c(N)c2F)c(F)c1F	60 to 74%
N#Cc1ccc(-c2nc(C(=O)O)c(Cl)c(N)c2F)cc1	60 to 74%
COC(=O)c1nc(-c2cccc(F)c2F)c(F)c(N)c1Cl	95 to 100%
COC(=O)c1nc(-c2ccc(Cl)c(F)c2)c(F)c(N)c1Cl	95 to 100%
COC(=O)c1nc(-c2ccc(F)cc2)c(F)c(N)c1Cl	95 to 100%
Nc1c(F)c(-c2ccc(I)cc2F)nc(C(=O)O)c1Cl	85 to 94%
Nc1c(F)c(-c2ccc(C(F)(F)F)c(F)c2)nc(C(=O)O)c1Cl	85 to 94%
Cc1ccc(-c2nc(C(=O)O)c(Cl)c(N)c2F)c(F)c1F	95 to 100%
COC(=O)c1nc(-c2ccc(OC(F)F)c(F)c2)c(F)c(N)c1Cl	85 to 94%

###

# Test system: LOLSS: ryegrass including, Italian ryegrass (Lolium multiflorum), rigid ryegrass (Lolium rigidum), annual ryegrass (Lolium multiflorum subsp. Gaudini)
# procedureSummary: Post-emergent Test III, herbicidal activity in wheat and barley
# Format: in vivo
# measurementSetup: Table 9; dose for 80 percent growth reduction, probit analysis; 21 d
This listing pairs molecules with measured GR80 LOLSS.
experimentalEndpoint: GR80 LOLSS

C#Cc1ccc(-c2nc(C(=O)O)c(C=C)c(N)c2F)cc1	>140 g ai/ha
COC(=O)c1nc(-c2ccc(I)cc2F)cc(N)c1Cl	89 g ai/ha
Nc1cc(-c2ccc(Br)cc2)nc(C(=O)O)c1Cl	>140 g ai/ha
COC(=O)c1nc(-c2ccc(I)cc2)c(Cl)c(N)c1Cl	>140 g ai/ha
Nc1cc(-c2ccc(C(F)(F)F)c(F)c2F)nc(C(=O)O)c1Cl	>140 g ai/ha

###

# Test system: Key Grass and Sedge Weeds as well as Grass Crops
# procedureSummary: Post-emergent Test II herbicidal activity (Table 6)
# Format: in vivo
# measurementSetup: post-emergence, 336 h, ECHCG: barnyardgrass (Echinochloa crus-galli), application rate 70 g ai/ha, read-out: Visual Growth Reduction (%) 14 Days After Application, ECHCG
experimentalEndpoint: pest or weed control at 70 g/ha

C#Cc1ccc(-c2nc(C(=O)OC)c(C=C)c(N)c2F)cc1 [Compound 60]	0 to 29%
Cc1cc(F)c(-c2nc(C(=O)O)c(Cl)c(N)c2F)cc1F [Compound 194]	0 to 29%
C=Cc1c(C(=O)O)nc(-c2ccc(I)cc2)c(F)c1N [Compound 17]	75 to 84%
COC(=O)c1nc(-c2cc(F)c(C)cc2F)nc(N)c1OC [Compound 185]	0 to 29%
COC(=O)c1nc(-c2cc(F)c(Br)cc2F)nc(N)c1OC [Compound 2]	60 to 74%
COc1c(N)nc(-c2ccc(Br)c(F)c2)nc1C(=O)O [Compound 113]	85 to 94%
Nc1cc(-c2cc(F)c(C(F)F)cc2F)nc(C(=O)O)c1Cl [Compound 174]	60 to 74%
COC(=O)c1nc(-c2cc(F)c(Br)cc2F)c(F)c(N)c1Cl [Compound 51]	95 to 100%
COC(=O)c1nc(-c2ccc(Br)c(F)c2)cc(N)c1Cl [Compound 115]	85 to 94%

###

This listing pairs molecules with measured pest or weed control at 35 g/ha.
# Test system: MATSS: scented mayweed (Matricaria chamomilla), pineappleweed (Matricaria matricarioides)
# procedureSummary: Post-emergent Test III, herbicidal activity in wheat and barley
# Assay type: in vivo
# measurementSetup: Matricaria chamomilla, post-emergence, 504 h; Table 8; 35 g ai/ha; post-emergent; 21 d; read-out: Visual Growth Reduction (%) 21 Days After Application MATSS
experimentalEndpoint: pest or weed control at 35 g/ha

COc1c(N)nc(-c2ccc(I)c(F)c2)nc1C(=O)O	60 to 74%
Nc1c(Cl)c(C(=O)O)nc(-c2ccc(I)c(F)c2)c1Cl	95 to 100%
COc1c(N)nc(-c2ccc(Br)c(F)c2)nc1C(=O)O	85 to 94%
Nc1cc(-c2ccc(I)cc2F)nc(C(=O)O)c1Cl	75 to 84%
Nc1cc(-c2cc(F)c(Br)cc2F)nc(C(=O)O)c1Cl	95 to 100%

###

# Test system: Key Grass and Sedge Weeds as well as Grass Crops
# procedureSummary: Post-emergent Test II herbicidal activity (Table 6)
# Format: in vivo
# measurementSetup: post-emergence, 336 h, ECHCG: barnyardgrass (Echinochloa crus-galli), application rate 70 g ai/ha, read-out: Visual Growth Reduction (%) 14 Days After Application, ECHCG
This listing pairs compounds with measured pest or weed control at 70 g/ha.
experimentalEndpoint: pest or weed control at 70 g/ha

Nc1c(Cl)c(C(=O)O)nc(-c2ccc(C(F)(F)F)c(F)c2)c1Cl	75 to 84%
C#Cc1ccc(-c2nc(N)c(OC)c(C(=O)O)n2)c(F)c1F	45 to 59%
C=Cc1c(C(=O)O)nc(-c2ccc(C#N)cc2)c(F)c1N	0 to 29%
COC(=O)c1nc(-c2ccc(Br)cc2F)cc(N)c1Cl	85 to 94%
Nc1c(Cl)c(C(=O)O)nc(-c2ccc(Br)c(F)c2)c1Cl	75 to 84%
COc1c(N)nc(-c2cc(F)c(C(F)F)cc2F)nc1C(=O)O	0 to 29%
COC(=O)c1nc(-c2cc(F)c(C(F)F)cc2F)cc(N)c1Cl	85 to 94%
COC(=O)c1nc(-c2ccc(C#N)c(F)c2)c(C)c(N)c1Cl	0 to 29%
C=Cc1c(C(=O)O)nc(-c2ccc(Br)cc2)c(F)c1N	75 to 84%
COC(=O)c1nc(-c2ccc(I)c(F)c2F)cc(N)c1Cl	75 to 84%
C#Cc1ccc(-c2nc(C(=O)OC)c(Cl)c(N)c2C)cc1F	0 to 29%
COC(=O)c1nc(-c2cc(F)c(C(F)F)cc2F)c(F)c(N)c1Cl	85 to 94%
Cc1c(-c2ccc(C(F)(F)F)c(F)c2)nc(C(=O)O)c(Cl)c1N	45 to 59%

###

# Tested on: PAPRH: common poppy (Papaver rhoeas)
# procedureSummary: Post-emergent Test III, herbicidal activity in wheat and barley
# Type: in vivo
# measurementSetup: Papaver rhoeas, post-emergence, 504 h; 140 g ai/ha; read-out: Visual Growth Reduction (%) 21 Days After Application PAPRH
experimentalEndpoint: pest or weed control at 140 g/ha

Nc1c(F)c(-c2ccc(OC(F)F)cc2)nc(C(=O)O)c1Cl [Compound 143]	85 to 94%
COC(=O)c1nc(-c2ccc(I)cc2)c(F)c(N)c1Cl [Compound 118]	95 to 100%
Nc1c(F)c(-c2ccc(Cl)c(F)c2)nc(C(=O)O)c1Cl [Compound 217]	95 to 100%
COC(=O)c1nc(-c2ccc(Br)cc2)c(F)c(N)c1Cl [Compound 138]	95 to 100%

###

# System: GALAP: cleavers (Galium aparine)
# procedureSummary: Post-emergent Test III, herbicidal activity in wheat and barley
# Type: in vivo
# measurementSetup: Table 8; dose for 80 percent growth reduction, probit analysis; 21 d
This listing pairs molecules with measured GR80 GALAP.
experimentalEndpoint: GR80 GALAP (g ai/ha)

COc1c(N)nc(-c2ccc(I)c(F)c2)nc1C(=O)O	31
COC(=O)c1nc(-c2ccc(Br)c(F)c2)nc(N)c1OC	23
Nc1cc(-c2ccc(Br)c(F)c2)nc(C(=O)O)c1Cl	1
Nc1c(Cl)c(C(=O)O)nc(-c2ccc(I)c(F)c2)c1Cl	54

###

# Test system: VERPE: bird's-eye speedwell (veronica persica)
# procedureSummary: Post-emergent Test III, herbicidal activity in wheat and barley
# Type: in vivo
# measurementSetup: Veronica persica, post-emergence, 504 h; 140 g ai/ha; read-out: Visual Growth Reduction (%) 21 Days After Application VERPE
experimentalEndpoint: pest or weed control at 140 g/ha

COC(=O)c1nc(-c2ccc(Cl)c(F)c2)c(F)c(N)c1Cl	75 to 84%
COC(=O)c1nc(-c2ccc(C#N)cc2)c(F)c(N)c1Cl	85 to 94%
COC(=O)c1nc(-c2ccc(I)cc2)c(F)c(N)c1Cl	95 to 100%
Nc1c(F)c(-c2ccc(I)cc2)nc(C(=O)O)c1Cl	85 to 94%
